# Test system: MALME-3M melanoma
# Method notes: NCI-60 one-dose screen, 48 h (100 = growth as untreated, 0 = no growth, -100 = all killed)
# Particulars: 10 µM unless noted
The panel holds about 83,000 compounds, 20% with a hit somewhere; the sample as a whole holds those more often.
Please note: true (1) applies when growth is 80% or greater, and false (0) applies otherwise.

# check: growth of COc1ccc(C2C=C(c3ccc(OC)c(OC)c3)N=C3SC=C(C)N32)c(Br)c1 (configuration not stated) is greater than or equal to 80%
true (1)

growth >= 80% for O=c1[nH]c(NCc2ccccc2)nc2nc(Nc3ccc(NC(=S)Nc4ccccc4)cc3)nc(-c3ccc(O)cc3O)c12 ?
true (1)

API: above_or_equal(metric=growth, cutoff=80%) for item CC(C)(C)Nc1c(-c2cccs2)nc2ncccn12
true (1)

Could you tell me if the measured growth of CC(C)CC1NC(C)(C)CO1 (configuration not stated) reaches 80% or more?
true (1)

Evaluate CCOC(=O)c1c(/N=C2\SC(=O)/C(=C\C(=O)OC)N2NC)sc2c1CCN(C(=O)OCC)C2 : growth at minimum 80%?
true (1)

* * *

# Test system: CCRF-CEM leukemia
# Method notes: NCI-60 one-dose screen, 48 h
# Particulars: 10 µM unless noted
Compounds without any hit were thinned out: in the full panel of roughly 83,000, 20% have a hit. The source made the active and inactive calls. Rule for the calls: active = growth percent below 10; inactive = the rest.
Give your call using only these classes: active, inactive

These solved cases illustrate the format of a correct answer.
O=C1C2(c3ccccc3)C(c3ccccc3)=C(c3ccccc3)C1(c1ccccc1)C1CC=CC12 (stereo not drawn)	inactive
COc1ccc2c(c1)C(c1cc(OC)c3c(c1)OCO3)C1=C(COC1=O)N2 (stereo not drawn)	active

Write down the call the test reported for this compound. Item: N#Cc1ccc(N2Cc3ccccc3OC3=C2C(=O)c2c(O)ccc(O)c2C3=O)cc1
active

// param item: C/C(=C\c1ccc(OCC(=O)O)c(Cl)c1Cl)[N+](=O)[O-] ; yields the recorded call
inactive

Called result for CN1C(=O)N(C)C2C1NN=c1s/c(=C\C=C\c3ccccc3)c(=O)n12 (stereo not drawn)
inactive

Assay outcome for COc1ccc(OC)c(/C=C2\Oc3cc(OCCCN4CCCC4)ccc3C2=O)c1 : what was it?
inactive

Recorded test call requested for CCCC(=O)Oc1ccc(/C(=C(\C)c2ccccc2)c2ccc(OCCN(CC)CC)cc2)cc1
inactive

Kindly provide the recorded test outcome for the following compound: Cc1c(C(=O)/C=C/c2csc3ccccc23)[n+](=O)c2ccccc2n1[O-]
inactive

Which outcome was entered for the compound c1ccc(-c2nnc(-c3ccccn3)s2)nc1 in this test?
inactive

How was Oc1ccc2cc(Br)ccc2c1-c1c(O)ccc2cc(Br)ccc12 classified in this test?
inactive

// return assay outcome for O=C(NNC(=O)N1c2ccccc2C=Cc2ccccc21)c1ccc2ccccc2c1
inactive

How was CC(C)CSc1nc(NN)c(C#N)c(-c2ccc(F)cc2)n1 classified in this test?
inactive

Hey, what did the test say about CC1CCC(C)N(C)C1 (stereo not drawn) ?
inactive

Call for entry COc1cc(-c2nn(-c3cccc(NC(=O)c4ccc(Cl)c(C(F)(F)F)c4)c3)cc2-c2ccncc2)ccc1Cl :
inactive

How was COc1ccc(Nc2[nH]n3c(=O)cc(C)nc3c2C(N)=O)c(OC)c1 classified in this test?
inactive

Just curious, what result did Nc1cc2c([nH]c[n+]2CC#CCCl)c(SCC#CCCl)n1 get here?
active

Please share the test call associated with CN(C)CCCC(C#N)c1ccccc1 (stereo not drawn) .
inactive

* * *

# Tested on: 786-0 renal
# Method notes: NCI-60 one-dose screen, 48 h (100 = growth as untreated, 0 = no growth, -100 = all killed)
# Particulars: 10 µM unless noted
About 83,000 compounds went through this panel and 20% of them were active in at least one assay; those are over-represented in the sample as a whole.
Answer each item with its documented growth.
One number for each entry, in %.

Example cases with answers are listed next.
CCCCCCCC/C=C/CCCCCCCC1=NC(C)(C)CN1C(C)(C)CO	60.3
CC12CCCC(CC(=O)c3[nH]c4ccccc4c31)C2 (configuration not stated)	41.4
C=C1C(=O)O[C@H]2[C@H]1CC/C(COC(=O)NCc1ccccc1OC)=C\CC[C@@]1(C)O[C@@H]21	7.8
CC(C)(C)n1cc(-c2ccnc(NCCCNS(=O)(=O)c3ccc(Br)cc3)c2)c(-c2cccc(O)c2)n1	-2.1
O=S(=O)(NCCNc1nccc(-c2c(-c3ccc(O)cc3)nc3sccn23)n1)c1cccc2ccccc12	96.6

List growth for every entry below, keeping the order given.
1. Cc1cc(N/N=C/c2nc(-c3ccccc3)oc2C)c2cc(Cl)ccc2n1
2. C=C[C@@H]1C[C@H](O)Cc2c(C)cc(C)cc2N1

[-83.1, 98.8]

* * *

# Test system: SF-539 CNS
# Method notes: NCI-60 one-dose screen, 48 h (100 = growth as untreated, 0 = no growth, -100 = all killed)
# Particulars: 10 µM unless noted
Compounds without any hit were thinned out: in the full panel of roughly 83,000, 20% have a hit.
Readout name: growth (%)
Numbers only, in %.

Examples with answers:
C=C1CCC2C3(C)COC(c4ccccc4)OC3CCC2(C)C1/C=C/C1=CCOC1=O (stereo not drawn)	63.6
O=C(/C=C\c1cccc([N+](=O)[O-])c1)/C=C/c1cccc([N+](=O)[O-])c1	101
N=C(N)c1ccc(-c2cc(Cl)cc(Cl)c2)cn1	89.6
COc1cc(-c2ncn(/C=C\C(=O)OC(C)C)n2)cc(C(F)(F)F)c1	-36.8
Cc1ccc(/C=C2\CN(C(=O)CCN3CCC(=NO)CC3)C/C(=C\c3ccc(C)cc3)C2=O)cc1	-18

Fill in growth for each of the 5 molecules listed.
1. COP(=O)(OC)/C(=N\NS(=O)(=O)c1ccc(C)cc1)c1ccccc1
2. CCOC(=O)c1ccc(NC(=O)N2CC(C)OC(C)C2)cc1 (stereo not drawn)
3. O=C(Nc1cccc(-n2cc(-c3ccncc3)c(-c3ccc(Cl)c(O)c3)n2)c1)Nc1ccc(Cl)c(Cl)c1
4. Cc1cc(N/N=C/c2nc(-c3ccccc3)oc2C)c2cc(Br)ccc2n1
5. CC(=O)c1cc2c(N)c(C(=O)Nc3cccc4c3OCCO4)sc2nc1C

[95, 95.8, 37, 75.2, 100]

// each listed molecule needs a value for growth
1. COc1cc(-c2nn(-c3cccc(NC(=O)Nc4cc(C(F)(F)F)cc(C(F)(F)F)c4)c3)cc2-c2ccncc2)ccc1Cl
2. COc1cc2c(cc1OCCCCCn1c3ccccc3c3ccccc31)N=C[C@@H]1CCCN1C2=O
3. Cc1ccc(S(=O)(=O)NCCNc2nccc(-c3c(-c4ccc(O)cc4)nc4sccn34)n2)cc1

1: -53.5; 2: -85.8; 3: 107

* * *

# Test system: HOP-92 NSCLC
# Method notes: NCI-60 one-dose screen, 48 h (100 = growth as untreated, 0 = no growth, -100 = all killed)
# Particulars: 10 µM unless noted
Compounds without any hit were thinned out: in the full panel of roughly 83,000, 20% have a hit.
Label rule, in plain words: growth of 80% and up is True, under 80% is False.

Cc1ccc(N2CCN(C(C)C(N)=O)CC2)cc1 (centres undefined)	True
O=C(Nc1cccc(-n2cc(-c3ccncc3)c(-c3ccc(Cl)c(O)c3)n2)c1)c1ccccc1	False
O=C(O)Cc1cccc(=O)c(O)c1C(=O)O	True
COc1cccc(-c2nc3sccn3c2-c2ccnc(NCCCNS(=O)(=O)c3ccc(F)cc3)c2)c1	False
c1cc2[nH]ncc2cc1-c1nc2ccc3[nH]ncc3c2c2c1CCC2	False
C=C1C(=O)O[C@H]2[C@H]1CC/C(Cn1cc(CNC(=O)c3cc4ccccc4[nH]3)nn1)=C\CC[C@@]1(C)O[C@@H]21	False
COc1ccc(Cn2cc3c(c2-c2cc(OC)c(OC)c(OC)c2)CCc2cnoc2-3)cc1	False

API: above_or_equal(metric=growth, cutoff=80%) for item O=C(CSc1nc2ccccc2[nH]1)c1ccc(N2CCOCC2)cc1
True

* * *

# Tested on: PC-3 prostate
# Method notes: NCI-60 one-dose screen, 48 h
# Particulars: 10 µM unless noted
This is part of a sample that, as a whole, favours compounds with a hit. Of some 83,000 tested, about 20% had one in any assay. Calls of active or inactive are those of the source. Rule for the calls: active = growth percent below 10; inactive = the rest.
Permitted responses: active, inactive

Record excerpt, results attached:
CCCCC(CC)OC(=O)C(Br)CC (centres undefined)	inactive
CCC(C)/C(=C\C#N)NCCCN/C(=C/C#N)C(C)CC (centres undefined)	inactive
Cn1c2ccc(Br)cc2c2c3c(c4c5ccccc5[nH]c4c21)C(=O)N(O)C3=O	active
COc1ccc(C(=O)n2nc(/C=C/c3ccc(O)c(OC)c3)cc2/C=C/c2ccc(O)c(OC)c2)cc1	active
N=C(N)c1ccc(-c2ccc(-c3cncc4ccccc34)s2)cc1F	active

Test call, this molecule: CCOC(=O)/C(C#N)=C1/C(=O)Nc2ccccc21
inactive
